Each item that follows carries a reported TRF signal.
target: trypsin; assay: TRF, 0.6 ug/mL Fab on trypsin
Keep the answer to the number alone.

Consider the worked cases shown below.
BINDER	MEASUREMENT
KB_A05 Fab (Fab, V domains shown) VH: EVQLVESGGGLVRPGGSLRLSCAASGFTFSSYAMSWVRQAPGKGLEWVSAISGSGGSTYYADSVKGRFTISRDNTKNSLYLQMTSLRADDTAFYYCVDFGPGYGTGWFDYWGPGTLVTVSS VL: AVNWYQQLPGKAPKLLIYAADKCPRILMRCKQDSDCLAGCVCGPNGFCGGGSGIPERFSGSKSGTSASLAISGLRSEDEADYYCATWDDNLNGVVFGGGTKLTVLG	46700
KB_C10 Fab (Fab, V domains shown) VH: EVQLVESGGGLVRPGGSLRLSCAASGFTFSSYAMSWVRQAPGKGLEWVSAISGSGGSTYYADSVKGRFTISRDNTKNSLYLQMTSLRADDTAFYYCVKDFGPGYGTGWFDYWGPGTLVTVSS VL: AVNWYQQLPGKAPKLLIYAAGPCPRILMRCKQDSDCLAGCVCGPNGFCGADSGVSDRFSGSKSGTSASLAITGLQAEDEGDYYCAAWDDSLNGLVFGGGTKVTVLG	41700
KB_B02 Fab (Fab, V domains shown) VH: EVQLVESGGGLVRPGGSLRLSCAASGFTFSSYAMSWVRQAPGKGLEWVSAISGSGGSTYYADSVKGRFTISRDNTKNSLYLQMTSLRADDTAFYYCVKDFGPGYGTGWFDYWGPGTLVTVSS VL: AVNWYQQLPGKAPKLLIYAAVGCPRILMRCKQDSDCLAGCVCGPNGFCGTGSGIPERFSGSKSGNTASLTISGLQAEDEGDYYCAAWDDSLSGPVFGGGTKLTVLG	2340
KB_A11 Fab (Fab, V domains shown) VH: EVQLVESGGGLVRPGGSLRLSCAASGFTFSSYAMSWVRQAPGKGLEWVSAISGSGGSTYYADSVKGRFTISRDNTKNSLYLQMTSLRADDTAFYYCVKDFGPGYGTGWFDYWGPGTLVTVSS VL: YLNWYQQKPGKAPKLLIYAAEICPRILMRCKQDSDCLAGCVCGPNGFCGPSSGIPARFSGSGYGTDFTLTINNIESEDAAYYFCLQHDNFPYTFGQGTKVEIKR	48900

Now for a further binder.
Form field TRF signal, entry KB_A06 Fab (Fab, V domains shown) VH: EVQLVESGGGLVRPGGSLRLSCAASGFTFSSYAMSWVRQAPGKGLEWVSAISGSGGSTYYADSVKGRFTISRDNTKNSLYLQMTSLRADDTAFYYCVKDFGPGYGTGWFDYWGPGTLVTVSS VL: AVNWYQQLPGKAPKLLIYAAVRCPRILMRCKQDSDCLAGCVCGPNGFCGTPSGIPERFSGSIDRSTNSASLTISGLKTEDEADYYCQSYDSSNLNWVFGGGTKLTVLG : 108000
